Where do these numbers come from? They come from ChEMBL document CHEMBL3988442.

Percent Effect reference
Test system: Wolbachia pipientis
Experiment: Anti-Wolbachia Cell-Based Screen
Type: functional
Design: scale not given: in the data most compounds retested in dose-response had high values
Conditions: 5 µM
Screen size: about 48,000 compounds; about 13,000 (27%) showed an effect of 50% or more. Some of the results follow.
Report as a plain number; the unit % is understood.

INSERT INTO measurements (compound, readout_number) VALUES
  ('CC1CCCN(Cc2ccc(OCc3nccn3C)cc2)C1 (stereo not drawn)', 64.75),
  ('Cc1c(C(C)NC2CCCC2)cnn1-c1ccc(F)cc1F (stereo not drawn)', 1.139),
  ('COc1ccccc1CN(C)c1nc2c(cnn2C)c(=O)[nH]1', -4.184),
  ('Cc1nc(CN2CCCC(NCc3c(C)nc4sccn34)C2)no1 (stereo not drawn)', -4.535),
  ('COc1ccc(CN(C)c2nc3c(cnn3C)c(=O)[nH]2)c(OC)c1', -2.005);

// query # lookup: Percent Effect of COc1ccccc1-c1cc(C(=O)N2CCCC2)c2cnn(C)c2n1
// result 117.8

// query Query (compound): Cn1ccnc1COc1ccc(CN2CCN(CCO)CC2)cc1 ; field requested: Percent Effect
// result -5.223

// query Recorded Percent Effect of Cc1nc(CN2CCCC(NCc3csc(C(C)(C)C)n3)C2)no1 (stereo not drawn) , please.
// result 82.03

// query Please give the measured Percent Effect for this compound: Cc1nc(CN2CCCC(NCCOCC(F)(F)F)C2)no1 (stereo not drawn)
// result -2.958

// query Entry Cn1ccnc1COc1ccc(CSc2nncn2C2CC2)cc1 has what Percent Effect?
// result -10.32

// query # query: Percent Effect of entry CC1c2ncc(COCC3CC3)n2CCN1S(=O)(=O)N(C)C (stereo not drawn)
// result -6.883

// query Recorded Percent Effect for Cn1ccnc1COc1ccc(CSc2nnnn2C)cc1 , please?
// result 6.685

// query Can you share its Percent Effect? I mean this compound: Cn1ccnc1COc1ccc(CN2CCC(C(N)=O)CC2)cc1
// result 122.5
